measurementTarget: UniProt:P05067
Sequence (P05067 672-713): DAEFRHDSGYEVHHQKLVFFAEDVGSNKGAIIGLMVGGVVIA
metric: Ki (nM)
Give the number; nM is assumed, so skip it.

Quick check: Ki of CNc1ccc(N=Nc2ccc(N(C)C)cc2)cc1 ?
0.54
